test system: SK-MEL-28; test: NCI tumour cell line growth inhibition, 48 h
Activity calls are given as the source filed them. Rule as the data show it: active = GI50 up to about 1.1 µM and inactive = higher.
endpoint_name: GI50

What value of GI50 on SK-MEL-28 does CCc1c(O)nc(Nc2nc3ccccc3[nH]2)[nH]c1=O have?
> 100 µM (inactive)

# get_value(readout= GI50, system= SK-MEL-28) for Cc1cc2ncc3c(=O)n(NS(=O)(=O)c4ccc(N)cc4)ccc3n2n1
> 100 µM (inactive)

Notebook entry, SK-MEL-28 assay: GI50 of COc1ccc(CNc2nc(NCc3ccc(OC)cc3)nc(NC3CCCCC3)n2)cc1 = ?
> 100 µM (inactive)

Request - read-out GI50 | tested on SK-MEL-28 | compound CC(C)CCn1c(=O)c2c(=O)[nH][nH]c2c2ccccc21
> 100 µM (inactive)

Form field: GI50 recorded for CCOC(=O)C1=NN(c2ccc(C)cc2)C2(c3ccccc3)C=C(c3ccccc3)N(C)CCN12 (stereo not given) with SK-MEL-28 (enter value)
> 100 µM (inactive)

Lab note: need GI50 with SK-MEL-28 for entry CC(C#N)c1cn(S(=O)(=O)c2ccccc2)c2ccccc12 (stereo not given) , please look it up.
60.7 µM (inactive)

Form field: GI50 recorded for Cn1c2ccccc2c(=S)c2ccccc21 with SK-MEL-28 (enter value)
> 100 µM (inactive)

====

We begin with a simple list: items and their reported GI50.
tested on: HCT-116; assay: NCI tumour cell line growth inhibition, 48 h
Activity calls are given as the source filed them. Cut-off read from the data, not from the text of the source: active = GI50 up to about 1.1 µM and inactive = higher.

Below, each entry is followed by its recorded GI50 result.
Nc1nc(Cl)c(Cl)c(NCC2(O)CCC2)n1
57.3 µM (inactive)
O=C1CS(=O)(=O)C(c2cccc(Oc3ccccc3)c2)N1C1CC1 (configuration not stated)
25.5 µM (inactive)
CN(C)c1ccc(C2CC(c3ccc4ccccc4c3O)=NN2)cc1 (configuration not stated)
31.7 µM (inactive)
Cn1c(N)nc(=O)c2c1N(C1OC(CO)C(O)C1O)CN2Cc1ccccc1 (configuration not stated)
> 100 µM (inactive)

Which GI50 is listed for O=C(O)c1cccc(OCCO)c1 ?
> 100 µM (inactive)

Entry CC(=O)Nc1ccc2oc(=O)c3ccccc3c2c1 : reported GI50 = ?
> 100 µM (inactive)

Reported GI50 for C#CC(=O)OCC#CCOC(=O)C#C : what is it?
15.7 µM (inactive)

Find the recorded GI50 belonging to COc1ccc(/C(Cl)=C(\C=O)c2cc(OC)c(OC)c(OC)c2)cc1OC and report it.
36.6 µM (inactive)

Can you share its GI50? I mean this compound: C=CCC1CC(n2cc(C)c(=O)[nH]c2=O)OC1CO[Si](C)(C)C(C)(C)C (configuration not stated)
11.7 µM (inactive)

Form field: reported GI50 of Cc1nc2c(=O)[nH]c(=O)nc-2n(CCO)c1C
> 100 µM (inactive)

Can you share its GI50? I mean this compound: CSc1nc2ccccc2c(=O)n1-c1cccc(C)c1
47.8 µM (inactive)

# query: GI50 of entry CN1C(=O)C2(c3ccccc31)C1CC3C(CO1)C1C2C3(CO)CN1C#N (configuration not stated)
> 100 µM (inactive)

====

tested on: LOX IMVI; experiment: NCI tumour cell line growth inhibition, 48 h
Calls of active or inactive are those of the source. Cut-off read from the data, not from the text of the source: active = GI50 up to about 1.1 µM and inactive = higher.
Hi! Could you answer with just one of these? t = active, f = inactive

Examples with answers:
COc1ccc(/N=C/C=C/Nc2ccc(OC)cc2)cc1
f
CS(=O)(=O)Nc1ccc(N2Cc3c[nH]c4ccc5nccc2c5c34)cc1
f
C[N+](C)(C)C1(C(=O)[O-])CC1
f

How was NC(=O)NOCC1NC(=O)NC1=O (configuration not stated) classified in this test?
f

// param item: CCOC(=O)c1nc2ccc(C(F)(F)F)cc2nc1Nc1ccc(OC)cc1 ; yields the recorded call
f

Hi team, can someone confirm the assay call for CSc1nc(SC)c2ncn(C3CC(Oc4ccc(C)cc4)C(COc4ccc(C)cc4)O3)c2n1 (configuration not stated) ?
f

In this assay, the call recorded for Cc1ccc(C(=O)O/N=C2/CCCCC2CN(C)C)cc1 (configuration not stated) was what?
f

Field: outcome | Entry: O=C(Nc1cccc([N+](=O)[O-])c1)C(=O)C(C(=O)c1ccccc1-c1ccccc1)C1OC(=O)c2ccccc21 (configuration not stated)
f

Fill in: this test's call for O=C1OC(C2=CC(=O)c3ccccc3C2=O)C(Cl)=C1Cl (configuration not stated) is ___
f

Write down the call the test reported for this compound. Item: c1c[nH]c(CN2CCOCC2)n1
f

State the result this test recorded for C/C(=N\NC(=[Se])N(C)C)c1ccccn1 .
t

// param item: NC(=O)NC12CC3CC(CC(F)(C3)C1)C2 ; yields the recorded call
f

====

tested on: PC-3; assay: NCI tumour cell line growth inhibition, 48 h
Calls of active or inactive are those of the source. Cut-off read from the data, not from the text of the source: active = GI50 up to about 1.1 µM and inactive = higher.
Select the matching outcome among active, inactive

Clc1ccccc1/C=c1\nc(-c2ccccc2)n2c1nc1ccccc12
inactive
C=C1c2nc3ccccc3n2C=C(c2ccc(Cl)cc2)N1c1ccc(OCCN2CCOCC2)cc1
inactive
C/C(=N\Nc1nc2ccccc2s1)c1cc(C)ncn1
active
O=C1/C(=C/c2c(Cl)[nH]c3ccccc23)c2ccccc2N1c1ccccc1
inactive
CSc1nc(SC)c2ncn(C3CC(Oc4ccc(C)cc4)C(COc4ccc(C)cc4)O3)c2n1 (stereo unspecified)
inactive

Please examine the following record next.
For C/C(=N\NC(=[Se])N(C)C)c1ccccn1 , which call appears in the assay record?
active

====

tested on: MDA-N; assay: NCI tumour cell line growth inhibition, 48 h
Calls of active or inactive are those of the source. Cut-off read from the data, not from the text of the source: active = GI50 up to about 1.1 µM and inactive = higher.
Respond only with the outcome that fits, drawn from active, inactive

COc1cccc2c1[C@H]1CO[C@H]3C4C[C@H](C(=O)O)C([C@@H](C2)N13)N4C (some centres undefined)
active

Hi, do you know how O=C1CC(C(=O)O)Cc2c(Br)ccc(O)c21 (centres undefined) came out in this test?
inactive

Please state the recorded outcome for this compound: COc1cc2cc(C(=O)N3CC(CCl)c4ccc([N+](C)(C)Cc5ccc([N+](=O)[O-])cc5)cc43)[nH]c2c(OC)c1OC (centres undefined)
inactive

Short answer needed: outcome of this test for O=C(O)CNC(=O)c1ccc(-c2ccccc2)cc1 ?
inactive

Record request — test call for CC(=O)NC1C(OCc2ccccc2)OC(CO)C(O)C1OCC(=O)N1CCCC1C(=O)NC(CCC(=O)NCCCCCNc1c2ccccc2nc2cccc([N+](=O)[O-])c12)C(N)=O (centres undefined)
active

Test call, this compound: OCC1c2ccccc2-n2nc(-c3ccccc3)c(O)c21 (centres undefined)
inactive

Per the records of this test, what outcome belongs to Cc1ccc([N+](=O)[O-])cc1S(=O)(=O)Nc1ccc(C2=NN(C(=O)c3ccccc3)C(c3ccccc3)C2)cc1 (centres undefined) ?
inactive

Call for entry CN(C)C(=O)/N=C1\SC(=N\c2ccccc2)/C(=N/c2ccccc2)N1c1ccc([N+](=O)[O-])cc1 :
inactive

Write down the call the test reported for this compound. Item: O=C1OC(C2=CC(=O)c3ccccc3C2=O)C(Cl)=C1Cl (centres undefined)
inactive

====

test system: MDA-MB-435; assay: NCI tumour cell line growth inhibition, 48 h
Active and inactive are the calls of the source. Cut-off read from the data, not from the text of the source: active = GI50 up to about 1.1 µM and inactive = higher.
endpoint_name: GI50

COc1ccc(/C=C2\C[C@H]3[C@@H]4CC=C5C[C@@H](OC(C)=O)CC[C@]5(C)[C@H]4CC[C@]3(C)\C2=N\O)cc1OC
20.7 µM (inactive)
CC(=O)NC(CCCCNC(=O)OC(C)(C)C)C(=O)O (stereo not drawn)
> 100 µM (inactive)
C1CN(c2nnc(N3CCC3)nn2)C1
18.4 µM (inactive)
CS(=O)(=O)Nc1ccc(N2Cc3c[nH]c4ccc5nccc2c5c34)cc1
15.5 µM (inactive)
CCO[C@H]1C[C@@H](c2ccccc2)[C@]2(C)C[C@H](C(=O)OC)ON2O1
> 100 µM (inactive)

What does the data say about its GI50? Entry: CC(C)CCn1c(=O)c2c(=O)[nH][nH]c2c2ccccc21
> 100 µM (inactive)

Which GI50 reading was recorded for the compound CC(=O)O[C@@H]1CC2[C@@H](CCC3Cc4nc5c(nc4C[C@@]32C)CC2CC[C@@H]3C(CC[C@@]4(C)C3CC[C@@H]4C(C)CCCC(C)C)[C@@]2(C)C5)C2C[C@@H]3OC4(CCC(C)CO4)C(C)[C@@H]3[C@]21C (stereo partly drawn) ?
> 100 µM (inactive)

Reported GI50 for COC(=O)[C@H]1[C@H](OC(=O)[C@@H](OC)c2ccccc2)ON2CC[C@@H](OC(=O)c3ccccc3)[C@H]12 : what is it?
> 100 µM (inactive)

====

tested on: SW-620; test: NCI tumour cell line growth inhibition, 48 h
Activity calls are given as the source filed them. Rule as the data show it: active = GI50 up to about 1.1 µM and inactive = higher.
Could you please pick one outcome from this set? Y = active, N = inactive

Oc1cc(O)c2c(c1)OC(c1ccc(O)c(O)c1)C(OC1(c3cc(O)c(O)c(O)c3)Oc3cc(O)cc(O)c3C(O)C1O)C2 (stereo unspecified)
N
CCSc1[nH]c(Nc2nc(-c3ccccc3)n(-c3ccccc3)n2)c(C(N)=O)c1C(N)=O
N
[N-]=[N+]=CC(=O)CCC(N)C(=O)O (stereo unspecified)
N

Any idea what this test logged for CSCCC(NOC(=O)Cc1ccccc1)P(=O)(O)c1ccccc1 (stereo unspecified) ?
N

What classification did CCNCCNC(=O)c1ccc(Br)cc1 end up with in this test?
N

What did this assay record as the result for Cc1ccc(C[P+]2(c3ccccc3)CCCCC2)cc1.[O-][Cl+3]([O-])([O-])[O-] ?
N

Which result was noted for this molecule in the test: CCN(CC)CCCNc1c2cc(OC)ccc2nc2cccc([N+](=O)[O-])c12
Y

State the result this test recorded for Cc1cc(C)nc(NS(=O)(=O)c2ccc(NNc3c4ccccc4nc4c(C(=O)Nc5ccc(S(N)(=O)=O)cc5)cccc34)cc2)n1 .
N
